Source: patent US20240270821A1

Quick reference: pEC50 of the listed items.
biological target: hGIPR (Homo sapiens); experiment: Functional cAMP activity in the presence of 1% HSA; type: cell-based; settings: read-out: cAMP Rel EC50, hGIPR
Sequence (P48546 22-466): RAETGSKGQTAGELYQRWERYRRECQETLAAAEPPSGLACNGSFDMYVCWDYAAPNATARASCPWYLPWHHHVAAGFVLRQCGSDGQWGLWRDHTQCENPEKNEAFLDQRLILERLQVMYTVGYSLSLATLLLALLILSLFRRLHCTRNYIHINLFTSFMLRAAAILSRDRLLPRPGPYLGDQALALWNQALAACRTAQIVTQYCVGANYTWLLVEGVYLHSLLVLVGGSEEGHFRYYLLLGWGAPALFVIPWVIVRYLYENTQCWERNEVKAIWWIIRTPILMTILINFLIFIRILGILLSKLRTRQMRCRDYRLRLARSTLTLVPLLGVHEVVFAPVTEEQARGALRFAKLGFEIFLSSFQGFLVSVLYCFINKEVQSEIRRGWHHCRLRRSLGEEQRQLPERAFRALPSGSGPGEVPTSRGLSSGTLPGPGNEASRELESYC
pEC50: −log10 of the molar value. Starred links: 1 amine or outer side, 2 acyl side, 3 side chain; linkers in the order of their positions; H or OH if unused. Non-standard residues stand in square brackets, D forms with d. Groups on a side chain read outwards from the residue. *: point of attachment. C20 diacid = O=C(O)CCCCCCCCCCCCCCCCCCC(=O)*; C18 diacid = O=C(O)CCCCCCCCCCCCCCCCC(=O)*; αMePhe(2-F) = C[C@](N)(Cc1ccccc1F)C(=O)O; γGlu = O=C(O)[C@H](CCC(=O)[*:2])N[*:1]; αMe4Pal = C[C@](N)(Cc1ccncc1)C(=O)O; αMeY = C[C@](N)(Cc1ccc(O)cc1)C(=O)O; 4Pal = N[C@@H](Cc1ccncc1)C(=O)O; αMeL = CC(C)C[C@](C)(N)C(=O)O; αMeS = C[C@](N)(CO)C(=O)O; Orn = NCCC[C@H](N)C(=O)O; AEEA = NCCOCCOCC(=O)O; Aib = CC(C)(N)C(=O)O
assay_endpoint: pEC50

H-Y[Aib]QGT[αMePhe(2-F)]TSDYSKLLDKIAQK([AEEA-γGlu-C20 diacid])AFIEYLIEGGPSSGAPPPSGE-NH2 [Example 356] = 7.72
H-Y[Aib]QGT[αMePhe(2-F)]TSD[4Pal][αMeS]I[αMeL]LD[Orn]K([γGlu-γGlu-C18 diacid])AQ[Aib][Orn]FI[dE][αMeY]LQEGGPSSGEPPPEGSEE-NH2 [Example 585] = 8.41
H-Y[Aib]QGTFTSD[4Pal]SQ[αMeL]LDKK([γGlu-γGlu-C18 diacid])AQ[αMe4Pal]AFIE[αMe4Pal]LIE[Aib]GPSSGAPPPSGTGE-NH2 [Example 1119] = 8.40
H-Y[Aib]QGT[αMePhe(2-F)]TSD[4Pal][αMeS]I[αMeL]LD[Orn]K([γGlu-γGlu-C18 diacid])AQ[αMe4Pal]EFI[dE][αMeY]LVEGGPSSGEPPPSGGGE-NH2 [Example 739] = 9.29
H-Y[Aib]QGT[αMePhe(2-F)]TSD[4Pal]SILLDKK([γGlu-γGlu-C18 diacid])AQ[Aib]AFIEYLQEGGPSSGAPPPSGTE-NH2 [Example 553] = 8.53

----------
target: hGLP-1R (Homo sapiens, UniProt P43220); experiment: Functional cAMP activity in the presence of 1% HSA; format: cell-based; conditions: read-out: cAMP Rel EC50, hGLP-1R
Sequence (P43220 24-463): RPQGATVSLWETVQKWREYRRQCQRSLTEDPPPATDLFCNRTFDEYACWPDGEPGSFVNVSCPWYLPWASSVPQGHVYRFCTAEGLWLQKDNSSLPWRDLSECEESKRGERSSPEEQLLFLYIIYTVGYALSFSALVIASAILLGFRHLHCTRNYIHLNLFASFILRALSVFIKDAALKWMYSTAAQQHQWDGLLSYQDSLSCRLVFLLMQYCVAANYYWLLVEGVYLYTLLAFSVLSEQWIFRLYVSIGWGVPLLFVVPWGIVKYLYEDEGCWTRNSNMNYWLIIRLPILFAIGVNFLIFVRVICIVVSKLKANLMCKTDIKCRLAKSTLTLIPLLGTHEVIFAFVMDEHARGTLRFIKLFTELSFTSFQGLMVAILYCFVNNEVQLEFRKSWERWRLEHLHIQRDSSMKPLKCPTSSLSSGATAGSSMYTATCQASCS
Starred links: 1 amine or outer side, 2 acyl side, 3 side chain; linkers in the order of their positions; H or OH if unused. Non-standard residues stand in square brackets, D forms with d. Groups on a side chain read outwards from the residue. No end group written: not given here. *: point of attachment. C20 diacid = O=C(O)CCCCCCCCCCCCCCCCCCC(=O)*; C18 diacid = O=C(O)CCCCCCCCCCCCCCCCC(=O)*; αMePhe(2-F) = C[C@](N)(Cc1ccccc1F)C(=O)O; γGlu = O=C(O)[C@H](CCC(=O)[*:2])N[*:1]; αMe4Pal = C[C@](N)(Cc1ccncc1)C(=O)O; αMeY = C[C@](N)(Cc1ccc(O)cc1)C(=O)O; Hyp = O=C(O)[C@@H]1C[C@@H](O)CN1; 4Pal = N[C@@H](Cc1ccncc1)C(=O)O; αMeL = CC(C)C[C@](C)(N)C(=O)O; αMeS = C[C@](N)(CO)C(=O)O; Orn = NCCC[C@H](N)C(=O)O; AEEA = NCCOCCOCC(=O)O; Aib = CC(C)(N)C(=O)O
assay_endpoint: EC50 (µM)

Y[Aib]QGTFTSD[4Pal]SR[αMeL]LDKK([γGlu-γGlu-C18 diacid])AQ[αMe4Pal]AFIE[αMe4Pal]LIEGGPSSGAPPPSGSEE-NH2 [Example 959] = 0.503
H-Y[Aib]QGTFTSDFS[Orn][αMeL]LDKK([AEEA-γGlu-C18 diacid])AQ[Aib]AFIEYLLEGGPSSGAPP[Hyp]GGS-NH2 [Example 237] = 0.291
H-Y[Aib]QGTFTSDYSK[αMeL]LDKK([AEEA-γGlu-C20 diacid])AQQAFVQWLIE[dA]GPSSGEPPPSEG-NH2 [Example 342] = 0.062
H-Y[Aib]QGTFTSD[4Pal]S[Orn][αMeL]LD[Orn]K([γGlu-γGlu-C18 diacid])AQ[αMe4Pal]QFIEYLLAGGPSSGAPPPSGSEE-NH2 [Example 1002] = 1.29
H-Y[Aib]QGTFTSDFS[Orn][αMeL]LDKK([AEEA-γGlu-C18 diacid])AQ[Aib]AFIEYLLE[Aib]G[4Pal]SSGAPPPSGS-NH2 [Example 242] = 0.242
H-Y[Aib]QGT[αMePhe(2-F)]TSD[4Pal]SI[αMeL]LD[Orn]K([γGlu-γGlu-C18 diacid])AQ[αMe4Pal][Orn]FI[dE][αMeY]LIEGGPSSGEPPPEAE-NH2 [Example 684] = 0.0142
Y[Aib]Q[dA]T[αMePhe(2-F)]TSD[4Pal]SI[αMeL]LD[Orn]K([AEEA-γGlu-C18 diacid])AQ[αMe4Pal][Orn]FI[dE][αMeY]LIEGGPSSGEPPPESE-NH2 [Example 765] = 0.0261
H-Y[Aib]QGT[αMePhe(2-F)]TSD[4Pal][αMeS]I[αMeL]LD[Orn]K([AEEA-γGlu-C18 diacid])AQ[αMe4Pal]EFI[dE][αMeY]LIEGGPSSGAPPPEGGGEEE-NH2 [Example 1217] = 0.0627
H-Y[Aib]QGTFTSDFS[Orn][αMeL]LDKK([AEEA-γGlu-C18 diacid])AQ[Aib]AFIEYLLAGGPSSGAPPPSGSE-NH2 [Example 90] = 0.371
H-Y[Aib]QGTFTSD[4Pal]SQ[αMeL]LDKK([dE-dE-γGlu-C18 diacid])AQ[αMe4Pal]AFIEYLIE[Aib]GPSSGAPPPSGS-NH2 [Example 921] = 0.261
Y[Aib]QGT[αMePhe(2-F)]TSD[4Pal][αMeS]I[αMeL]LD[Orn][Orn]([AEEA-γGlu-C18 diacid])AQ[αMe4Pal]EFI[dE][αMeY]LVEGGPSSGAPPPSGS-NH2 [Example 1210] = 0.0381
